Origin of the recorded values: paper PMC12416549

Measured apparent Kd (screen) of individual entries
assay_target: T1, TNFR1 (Homo sapiens, UniProt P19438)
T1 chain: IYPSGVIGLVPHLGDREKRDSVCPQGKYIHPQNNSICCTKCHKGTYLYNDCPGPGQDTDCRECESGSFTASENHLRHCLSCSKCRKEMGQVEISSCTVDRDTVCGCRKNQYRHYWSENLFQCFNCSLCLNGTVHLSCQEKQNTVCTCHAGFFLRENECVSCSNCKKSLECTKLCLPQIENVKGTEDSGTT
test_description: yeast display SC50
Give your result in nM as a bare value.

Below, each entry is followed by its recorded apparent Kd (screen) result.
binder: Q34M (designed binder) MTLQELLREEALRRAEAEAFRYALELLAEKFPEMKEYLLDLAEEIESQIRSLSGVDVEDVRKFLDKEWAWVKELLAEHPAELAEVEAARAARLAELRAEVEAKVAA
measure: apparent Kd (screen)
endpoint_result: 2.73
//
binder: L24V (designed binder) MTLQELLREEALRRAEAEAFRYAVELLAEKFPEQKEYLLDLAEEIESQIRSLSGVDVEDVRKFLDKEWAWVKELLAEHPAELAEVEAARAARLAELRAEVEAKVAA
measure: apparent Kd (screen)
endpoint_result: 0.653
//
binder: L64E (designed binder) MTLQELLREEALRRAEAEAFRYALELLAEKFPEQKEYLLDLAEEIESQIRSLSGVDVEDVRKFEDKEWAWVKELLAEHPAELAEVEAARAARLAELRAEVEAKVAA
measure: apparent Kd (screen)
endpoint_result: 5.31
//
binder: W70T (designed binder) MTLQELLREEALRRAEAEAFRYALELLAEKFPEQKEYLLDLAEEIESQIRSLSGVDVEDVRKFLDKEWATVKELLAEHPAELAEVEAARAARLAELRAEVEAKVAA
measure: apparent Kd (screen)
endpoint_result: 29.5
//
binder: V60R (designed binder) MTLQELLREEALRRAEAEAFRYALELLAEKFPEQKEYLLDLAEEIESQIRSLSGVDVEDRRKFLDKEWAWVKELLAEHPAELAEVEAARAARLAELRAEVEAKVAA
measure: apparent Kd (screen)
endpoint_result: 12.5
//
binder: A83M (designed binder) MTLQELLREEALRRAEAEAFRYALELLAEKFPEQKEYLLDLAEEIESQIRSLSGVDVEDVRKFLDKEWAWVKELLAEHPAELMEVEAARAARLAELRAEVEAKVAA
measure: apparent Kd (screen)
endpoint_result: 0.593
//
binder: D56E (designed binder) MTLQELLREEALRRAEAEAFRYALELLAEKFPEQKEYLLDLAEEIESQIRSLSGVEVEDVRKFLDKEWAWVKELLAEHPAELAEVEAARAARLAELRAEVEAKVAA
measure: apparent Kd (screen)
endpoint_result: 0.593

Asked: Which apparent Kd (screen) reading was recorded for the binder Q4D (designed binder) MTLDELLREEALRRAEAEAFRYALELLAEKFPEQKEYLLDLAEEIESQIRSLSGVDVEDVRKFLDKEWAWVKELLAEHPAELAEVEAARAARLAELRAEVEAKVAA ?
Given back: 0.539
